- TEST_TARGET: FGFR3 (UniProt P22607)
- Sequence (P22607 whole entry, looked up): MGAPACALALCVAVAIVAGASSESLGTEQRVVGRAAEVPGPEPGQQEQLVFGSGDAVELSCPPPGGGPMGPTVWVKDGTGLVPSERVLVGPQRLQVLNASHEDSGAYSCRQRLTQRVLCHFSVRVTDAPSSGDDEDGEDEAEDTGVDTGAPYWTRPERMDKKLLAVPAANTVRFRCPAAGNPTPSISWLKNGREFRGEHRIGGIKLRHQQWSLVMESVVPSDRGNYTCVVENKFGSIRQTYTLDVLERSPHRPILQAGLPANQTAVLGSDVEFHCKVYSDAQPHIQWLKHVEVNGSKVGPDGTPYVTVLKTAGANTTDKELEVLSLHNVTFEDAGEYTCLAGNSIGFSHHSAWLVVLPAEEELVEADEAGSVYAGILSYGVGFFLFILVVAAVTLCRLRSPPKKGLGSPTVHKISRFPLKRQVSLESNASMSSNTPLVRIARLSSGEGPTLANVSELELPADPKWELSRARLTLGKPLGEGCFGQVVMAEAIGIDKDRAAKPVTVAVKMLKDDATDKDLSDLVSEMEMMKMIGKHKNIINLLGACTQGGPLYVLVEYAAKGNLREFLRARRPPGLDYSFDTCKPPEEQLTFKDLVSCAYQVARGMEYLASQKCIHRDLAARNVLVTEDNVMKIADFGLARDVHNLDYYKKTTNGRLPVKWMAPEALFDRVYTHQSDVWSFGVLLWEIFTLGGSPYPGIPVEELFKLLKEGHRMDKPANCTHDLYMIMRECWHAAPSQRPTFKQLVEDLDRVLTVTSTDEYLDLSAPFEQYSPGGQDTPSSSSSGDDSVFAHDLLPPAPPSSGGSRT
- METHOD: phosphorylation enrichment, bacterial display (enrichment ratio); higher = better substrate or ligand; peptides without Tyr show the background;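 note: 11-residue human phosphosite peptides and single-mutation variants displayed on the E. coli surface, counted by deep sequencing, each peptide's frequency after selection divided by its frequency in the unselected input library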;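 note: frequency after pTyr selection over input frequency; kinase dosed for 20-30% of maximal phosphorylation in three min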
Would you kindly list phosphorylation enrichment for each of these sequences?
Give bare numbers.

Parameters: items (list). Returns: phosphorylation enrichment for each item.
1. DGMADYSDPSY [CDC5L_Y459]
2. DVFVSYDCGKS [SORL1_Y139_Y141C_YF]
3. LHSEAYLKYNE [PBRM1_Y1610_I1614N]

1. 0.686
2. 0.61
3. 0.585

Parameters: items (list). Returns: phosphorylation enrichment for each item.
1. DNLSNYVFQGQ [GRIN2A_Y978_N976S]
2. ESLSSYWESAK [APOC2_Y47]
3. MNLLGYRQVRS [CHST4_Y359_H361Q]
4. VGTKWYMAPEV [ACVRL1_Y375_R374W]
5. DRFDNYIEKVR [DES_Y122_A120D]
6. ATPKGYETDAS [OTC_Y223_P225T]
7. CLEKEYFDQHF [NPC1_Y394_R389C]

0.611
0.692
0.614
0.747
0.604
0.616
1.13

###

- TEST_TARGET: EPHB1 (UniProt P54762)
- Sequence (P54762 whole entry, looked up): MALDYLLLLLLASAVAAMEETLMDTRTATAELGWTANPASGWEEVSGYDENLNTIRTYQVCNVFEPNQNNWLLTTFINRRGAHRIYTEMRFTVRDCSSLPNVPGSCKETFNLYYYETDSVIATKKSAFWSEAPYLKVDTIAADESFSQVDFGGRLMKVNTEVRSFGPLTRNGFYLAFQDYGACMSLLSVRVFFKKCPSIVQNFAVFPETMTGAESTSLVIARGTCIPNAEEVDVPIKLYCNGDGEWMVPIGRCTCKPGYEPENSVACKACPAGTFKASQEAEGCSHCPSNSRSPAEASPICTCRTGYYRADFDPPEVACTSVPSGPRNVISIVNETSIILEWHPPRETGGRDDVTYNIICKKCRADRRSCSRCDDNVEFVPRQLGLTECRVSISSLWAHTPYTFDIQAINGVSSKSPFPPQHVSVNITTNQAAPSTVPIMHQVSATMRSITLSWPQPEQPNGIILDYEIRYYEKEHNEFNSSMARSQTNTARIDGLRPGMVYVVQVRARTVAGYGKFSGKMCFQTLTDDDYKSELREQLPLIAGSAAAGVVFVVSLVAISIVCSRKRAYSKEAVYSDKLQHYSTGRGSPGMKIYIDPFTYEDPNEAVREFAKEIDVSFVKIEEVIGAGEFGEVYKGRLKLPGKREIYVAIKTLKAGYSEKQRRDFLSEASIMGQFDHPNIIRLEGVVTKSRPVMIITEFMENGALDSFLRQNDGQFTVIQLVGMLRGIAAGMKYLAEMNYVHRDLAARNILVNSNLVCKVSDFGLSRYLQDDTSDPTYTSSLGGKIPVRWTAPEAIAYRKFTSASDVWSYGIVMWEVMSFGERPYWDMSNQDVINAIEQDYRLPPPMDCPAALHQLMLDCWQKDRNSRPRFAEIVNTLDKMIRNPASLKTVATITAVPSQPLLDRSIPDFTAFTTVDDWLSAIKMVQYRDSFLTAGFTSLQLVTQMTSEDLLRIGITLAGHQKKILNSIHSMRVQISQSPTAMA
- METHOD: phosphorylation enrichment, bacterial display (enrichment ratio); higher = better substrate or ligand; peptides without Tyr show the background
Would you kindly list phosphorylation enrichment for each of these sequences?
Give bare numbers.

Reference set (4 entries):
1) VVEFGYEFFAK [PPP1CB_Y254_D252Y_YF]
0.583
2) AALRLYHVSDS [VIL1_Y256_K254R]
0.617
3) FALAEYTEVKT [ALDH1A3_Y497_YF]
0.59
4) MTFVFYRENLR [NLRP14_Y443_YF]
0.585

Now turn to the next sequence.
Fill in: phosphorylation enrichment of VKANTYEKYWP [GATM_Y100] is ___
0.59

###

- Test system: AncSZ
- METHOD: phosphorylation enrichment, bacterial display (enrichment ratio); higher = better substrate or ligand; peptides without Tyr show the background
Please mark 1 if the recorded phosphorylation enrichment is equal to or greater than 1, and -1 if it falls below.

Use the examples below as a reference point.
1. DEFLEHRRIVG [FAM221A_Y20_Y20H_YF]
-1
2. WAMLAYNRSKL [WWOX_Y293]
1
3. KLPYPYDDPFS [GPX2_Y127]
1
4. PHMQTYEVDLN [SDHB_Y61]
1
5. HTVEDYQAIVD [CCT7_Y263]
1
6. RVNSAYQEKVS [ACAN_Y100_D102E]
-1

Let's switch to this sequence now.
Textbook exercise: given the entry CQAHGYSCQLI [STK11_Y156_F157S] , state whether its phosphorylation enrichment is greater than or equal to 1.
-1

###

- Test system: c-Abl (mouse)
- METHOD: phosphorylation enrichment, bacterial display (enrichment ratio); higher = better substrate or ligand; peptides without Tyr show the background
READOUT_NAME: phosphorylation enrichment
One number for each entry.

Reference set (6 entries):
1) RPASVYTKRCS [CPT2_Y508]
0.687
2) SNSAAYSGSVA [PDLIM5_Y382_T381A]
0.697
3) MNLLGYRQVRS [CHST4_Y359_H361Q]
0.679
4) PKSLFYLLLKL [TRPC6_Y775]
2.62
5) DRFDNYIEKVR [DES_Y122_A120D]
0.583
6) FFWDGYMPRQF [GSS_Y270_R267W_YF]
0.734

Parameters: items (list). Returns: phosphorylation enrichment for each item.
1. GRTNIYNNKKD [SLC26A3_Y520_K521N]
2. DWLRRYLENGK [HLA-A_Y195_E190D]
3. IMAYFYMCDRA [CASD1_Y382]
4. YLQEIHNSNNQ [FGG_Y140_Y140H]
5. CTTIHYIYMCN [TP53_Y234_N235I]
6. GFQPEYGQPAG [SYP_Y278_D277E_YF]
7. QGLRLYRPHLA [BTK_Y617]
8. LAARYYNWVSF [FLT4_Y1231]

0.433
0.584
1
0.445
0.742
0.586
0.775
1.68

Parameters: items (list). Returns: phosphorylation enrichment for each item.
1. KKLAEYGPQGK [CLCA1_Y147_R152K]
2. AGADGYGYLAP [FOXL2_Y186]
3. LARHMYDKEFF [MET_Y1230_D1228H_YF]
4. DDSNPYINVKL [MTHFD1_Y52_L51P]

1. 0.427
2. 0.443
3. 0.524
4. 0.846

###

- TEST_TARGET: FGFR3 (UniProt P22607)
- METHOD: phosphorylation enrichment, bacterial display (enrichment ratio); higher = better substrate or ligand; peptides without Tyr show the background
READOUT_NAME: phosphorylation enrichment
Answers are plain numbers.

Reference set (4 entries):
1) INMKEYCKKDY [NTN1_Y490_K489E]
0.595
2) EAEPYYRSLRD [NPHS1_Y1139]
0.585
3) CTTIHKNFMCN [TP53_Y234_Y234K_YF]
0.585
4) DPADRYLTEQY [CDKL5_Y286_C291Y]
0.597

Now turn to the next sequence.
Fill in: phosphorylation enrichment of RLPSGYGLAFR [DLK1_Y262_YF] is ___
0.595

###

- TEST_TARGET: FGFR3 (UniProt P22607)
- METHOD: phosphorylation enrichment, bacterial display (enrichment ratio); higher = better substrate or ligand; peptides without Tyr show the background
READOUT_NAME: phosphorylation enrichment
One number for each entry.

Parameters: items (list). Returns: phosphorylation enrichment for each item.
1. SQSKGYRPKLF [SIPA1L3_Y1376_G1371S_YF]
2. FALAEYTEVKT [ALDH1A3_Y497_YF]
3. PNEAVYTKMMT [G6PD_Y401]
4. TLRETYGEMAD [ALB_Y108]
5. SDQPDYDSVAS [GIT2_Y392_N387S]

[0.42, 0.903, 0.571, 0.836, 0.693]

Parameters: items (list). Returns: phosphorylation enrichment for each item.
1. LEYNEYFRDLN [HPRT1_Y198_D194E]
2. RYVSRYIYNRE [HLA-DQB1_Y62_T60S]
3. NHFKIYNPCAE [PTEN_Y68_L70P_YF]
4. PTTKTYFLHFD [HBA1_Y43_P45L]
5. VQSASYLNDCL [MCM3AP_Y864_A867D]
6. RPASVYTKRCS [CPT2_Y508]

1. 1.75
2. 0.739
3. 0.676
4. 2.62
5. 0.712
6. 0.533

Parameters: items (list). Returns: phosphorylation enrichment for each item.
1. CDDGKYVYVVT [RPS6KA3_Y488_Y483C]
2. KRFRIYHLAIS [BRCA2_Y3009_T3013I_YF]

1.15
0.625

Parameters: items (list). Returns: phosphorylation enrichment for each item.
1. ISSLCYELLEE [TRPC6_Y896_R895C]
2. GDYYCYLAEVA [YWHAG_Y133_R132C]

1: 1.23; 2: 12.3

###

- Tested on: Fer (mouse)
- METHOD: phosphorylation enrichment, bacterial display (enrichment ratio); higher = better substrate or ligand; peptides without Tyr show the background
Please mark 1 if the recorded phosphorylation enrichment is equal to or greater than 0.6, and -1 if it falls below.

Use the examples below as a reference point.
1) GVKLTYGDAQS [SLC28A1_Y404_N409S]
-1
2) SISYDYCRVPM [BST2_Y8_T4I]
1
3) DVFVSYDCGKS [SORL1_Y139_Y141C_YF]
-1

Textbook exercise: given the entry WFKKFYDANFD [MAPRE2_Y158_YF] , state whether its phosphorylation enrichment is greater than or equal to 0.6.
-1

Please give the result for PVQAAYKKVVA [HBB_Y131_Q132K] too.
-1

###

- TEST_TARGET: Fes (UniProt P07332)
- Sequence (P07332 whole entry, looked up): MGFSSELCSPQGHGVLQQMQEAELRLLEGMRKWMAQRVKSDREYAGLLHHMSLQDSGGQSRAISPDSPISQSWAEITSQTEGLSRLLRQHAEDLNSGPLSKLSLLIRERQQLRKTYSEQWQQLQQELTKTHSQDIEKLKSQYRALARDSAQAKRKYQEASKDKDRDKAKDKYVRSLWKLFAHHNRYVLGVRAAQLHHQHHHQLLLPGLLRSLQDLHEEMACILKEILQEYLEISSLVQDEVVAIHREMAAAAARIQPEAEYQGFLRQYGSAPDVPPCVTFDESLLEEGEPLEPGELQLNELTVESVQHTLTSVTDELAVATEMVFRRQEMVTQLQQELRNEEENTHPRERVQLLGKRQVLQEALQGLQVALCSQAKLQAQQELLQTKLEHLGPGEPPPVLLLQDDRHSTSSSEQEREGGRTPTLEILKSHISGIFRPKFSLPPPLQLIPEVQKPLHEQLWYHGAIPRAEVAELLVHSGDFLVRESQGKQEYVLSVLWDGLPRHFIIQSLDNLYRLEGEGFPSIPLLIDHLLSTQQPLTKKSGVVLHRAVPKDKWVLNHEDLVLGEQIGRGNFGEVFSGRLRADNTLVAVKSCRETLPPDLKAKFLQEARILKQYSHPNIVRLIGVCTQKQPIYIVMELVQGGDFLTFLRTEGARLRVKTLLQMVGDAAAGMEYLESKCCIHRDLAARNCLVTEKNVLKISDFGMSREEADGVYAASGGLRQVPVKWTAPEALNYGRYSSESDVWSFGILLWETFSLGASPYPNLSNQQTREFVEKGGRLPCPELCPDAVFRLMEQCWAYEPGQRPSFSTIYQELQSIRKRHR
- METHOD: phosphorylation enrichment, bacterial display (enrichment ratio); higher = better substrate or ligand; peptides without Tyr show the background
Would you kindly list phosphorylation enrichment for each of these sequences?
Numbers only.

Reference set (3 entries):
1) EGDGVYTLNDE [HP_Y125_N129D]
1.23
2) RLLCEYQELMN [KRT75_Y434_R432C]
1.78
3) NKFTTYLPRLP [C9orf24_Y126_YF]
0.784

Parameters: items (list). Returns: phosphorylation enrichment for each item.
1. SPGGDYAAMGA [ERBB3_Y1276_G1271S]
2. SIVEDYRPPFY [ACVRL1_Y421_G416S]
3. SVVVPYERPEV [TP53_Y220_P222R]
4. CTTIHYTFMCN [TP53_Y234_N235T_YF]
5. GFRPVYSEDEQ [CHST6_Y362_YF]
6. FRPPYYHRNCM [HGD_Y334]

1: 0.861; 2: 1.25; 3: 0.988; 4: 1.14; 5: 1.49; 6: 0.88
